Origin of measurements: PubChem BioAssay

Exercise: state measured composite z-score for each of the compounds provided.
molecular target: Concanavalin-A (Canavalia ensiformis) (UniProt P02866); test: ConA small-molecule binders, primary screen, artefact control for SMM control protein annotation, biochemical, small-molecule microarray, Alexa647 label, 635 nm (AID 1127); settings: ConA-A647 binding fluorescence, higher = more signal;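 further: z combines 667 nm emission intensity with signal-to-noise across three replicate slides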
Sequence (P02866 whole entry, looked up): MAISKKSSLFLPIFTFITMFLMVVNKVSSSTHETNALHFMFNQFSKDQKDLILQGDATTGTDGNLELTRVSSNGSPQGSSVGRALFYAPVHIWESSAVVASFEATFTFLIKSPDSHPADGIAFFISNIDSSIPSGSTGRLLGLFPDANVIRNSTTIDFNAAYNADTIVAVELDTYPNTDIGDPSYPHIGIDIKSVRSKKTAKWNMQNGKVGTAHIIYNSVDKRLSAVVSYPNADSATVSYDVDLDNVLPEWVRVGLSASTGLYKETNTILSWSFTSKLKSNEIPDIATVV

Inquiry: Find composite z-score (Concanavalin-A (Canavalia ensiformis) (UniProt P02866)) for the entry `O=C1O[C@@H](c2ccccc2)[C@@H](c2ccccc2)N2[C@@H](c3ccccc3OCCO)[C@]3(C(=O)Nc4ccc(C#CC5=CCCCC5)cc43)[C@@H](C(=O)N3CCCCCCC3)[C@H]12`
Reply text: 1.09

Inquiry: Same thing, different compound: `COC(=O)c1c(CC[C@@H](CO)NC(=O)NCCn2cc(C3(O)CCCC3)nn2)oc(C(C)=O)c1C(=O)OC`
Reply text: -0.027

Inquiry: Same thing, different compound: `NC(=O)NCC#Cc1ccc2c(c1)[C@]1(C(=O)N2)[C@H](c2ccccc2OCCO)N2[C@H](c3ccccc3)[C@H](c3ccccc3)OC(=O)[C@H]2[C@@H]1C(=O)Nc1nc2ccccc2s1`
Reply text: 0.748

Inquiry: Same thing, different compound: `COC(=O)[C@@]1(Cc2ccccc2)[C@H]2c3cc(C(=O)N4CCCC4)n(Cc4ccc(S(C)(=O)=O)cc4)c3C[C@H]2CN1C(=O)c1ccccc1`
Reply text: 0.978

Inquiry: Same thing, different compound: `O=C(NCCN1CCOCC1)[C@@H]1c2ccccc2C(=O)N(C2CCCCC2)[C@H]1c1ccc(CO)cc1`
Reply text: 0.31

Inquiry: Same thing, different compound: `CC(C)C(=C=CC[C@@H](O)c1ccc(OCCO)cc1)C[C@@H](O)COCc1ccccc1`
Reply text: -0.625

Inquiry: Same thing, different compound: C[C@H]1C2[C@H](Cc3ccccc3)NC(=O)[C@]23C(=O)N[C@H](Cc2ccccc2)C(=O)N2CCC[C@H]2C(=O)NC/C=C\C/C=C/C3[C@@H]2O[C@]12C (stereo partly drawn)
Reply text: 0.78

Inquiry: Same thing, different compound: CCCCCN1CC=CC23O[C@@H]4/C=C\CCC(C)OC(=O)C4[C@H]2C(=O)N(C(C)CO)[C@@H]3C1=O (stereo partly drawn)
Reply text: -0.211

Inquiry: Same thing, different compound: `COc1ccc(C#Cc2ccc3c(c2)[C@]2(C(=O)N3)[C@H](C(=O)Nc3nc4ccccc4s3)[C@H]3C(=O)O[C@H](c4ccccc4)[C@H](c4ccccc4)N3[C@@H]2c2ccc(O)cc2)cc1`
Reply text: 1.12

Inquiry: Same thing, different compound: `C#C[C@H](O[Si](C#Cc1ccc(Oc2ccccc2)cc1)(C(C)C)C(C)C)c1ccccc1`
Reply text: 0.971

Inquiry: Same thing, different compound: `COCCOC(=O)N1C(=O)[C@@]2(c3cc(C#CCNC(N)=O)ccc31)[C@H](C(=O)Nc1nc3ccccc3s1)[C@H]1C(=O)O[C@H](c3ccccc3)[C@H](c3ccccc3)N1[C@@H]2c1ccc(OCCO)cc1`
Reply text: 0.994

Inquiry: Same thing, different compound: O=C1NC(=O)C2C1C=CC(C(O)c1cc(C(F)(F)F)cc(C(F)(F)F)c1)N2Nc1ccccn1 (stereo not drawn)
Reply text: 0.297

Inquiry: Same thing, different compound: `O=C1C[C@@](C(=O)NCC(F)(F)F)(c2ccc([N+](=O)[O-])cc2)[C@@H](c2ccc(CO)cc2I)N1C1CCCCC1`
Reply text: 0.676
